Overview of reported EC50 across a group of molecules:
Test Target: KCNQ 2/3 channels (HEK293 cells stably expressing human KCNQ2 and KCNQ3 subunits) (Homo sapiens, UniProt O43525+O43526)
Protocol Details: KCNQ2/3 channel activation, thallium flux FLIPR assay with BTC-AM dye
Test Settings: HEK293 cells expressing human KCNQ2 and KCNQ3; thallium flux, FLIPR
Measure: EC50

# Molecule, Measure, Assay Result
rows = [
    ("O=C(CC1CC2CCC1C2)Nn1nc(CCc2ccccc2)c2ccccc2c1=O (racemic) [Example 167]", "EC50", "< 0.1 µM"),
    ("O=C(Cc1ccc(Cl)cc1)Nn1nc(Cc2ccccc2)c2ccccc2c1=O [Example 142]", "EC50", "< 0.1 µM"),
    ("O=C(Nn1nc(-c2ccc(Cl)cc2)c2ccccc2c1=O)C(F)c1ccccc1 (centres unmarked) [Example 90]", "EC50", "> 10 µM"),
    ("O=C(C[C@@H]1C[C@@H]2C=C[C@H]1C2)Nn1nc(-c2ccc(F)cc2)c2ccccc2c1=O [Example 130]", "EC50", "< 0.1 µM"),
    ("CSCC(=O)Nn1nc(C(F)(F)F)c2ccccc2c1=O [Example 191]", "EC50", "> 10 µM"),
    ("COc1cccc(CC(=O)Nn2nc(-c3ccc(Cl)cc3)c3ccccc3c2=O)c1 [Example 105]", "EC50", "0.1 to 0.5 µM"),
    ("CC(C)(CC(=O)Nn1nc(-c2ccc(C(F)(F)F)cc2)c2ccccc2c1=O)c1ccccc1 [Example 148]", "EC50", "0.1 to 0.5 µM"),
    ("Cc1ccc(CC(=O)Nn2nc(C(F)(F)F)c3ccccc3c2=O)s1 [Example 56]", "EC50", "1 to 10 µM"),
]

---

Overview of reported EC50 across a group of compounds:
Test Target: KCNQ 2/3 channels (HEK293 cells stably expressing human KCNQ2 and KCNQ3 subunits) (Homo sapiens, UniProt O43525+O43526)
Protocol Details: KCNQ2/3 channel activation, thallium flux FLIPR assay with BTC-AM dye
Test Settings: HEK293 cells expressing human KCNQ2 and KCNQ3; thallium flux, FLIPR

# Compound, EC50
rows = [
    ("Cc1ccc(-c2nn(NC(=O)C[C@@H]3C[C@@H]4C=C[C@H]3C4)c(=O)c3ccccc23)c(C)c1", "100 to 500 nM"),
    ("O=C(CC1CC2CCC1C2)Nn1nc(-c2ccc(C(=O)O)cc2)c2ccccc2c1=O (racemic)", "1000 to 10000 nM"),
    ("O=C(Cc1ccccc1)Nn1nc(C(F)(F)F)c2ccccc2c1=O", "1000 to 10000 nM"),
    ("O=C(Cc1ccc(Cl)cc1)Nn1nc(-c2ccccc2)c2c(F)ccc(F)c2c1=O", "100 to 500 nM"),
]

---

Overview of reported EC50 across a group of compounds:
Test Target: KCNQ 2/3 channels (HEK293 cells stably expressing human KCNQ2 and KCNQ3 subunits) (Homo sapiens, UniProt O43525+O43526)
Protocol Details: KCNQ2/3 channel activation, thallium flux FLIPR assay with BTC-AM dye
Test Settings: HEK293 cells expressing human KCNQ2 and KCNQ3; thallium flux, FLIPR
Measure: EC50

# Compound, Assay Result
rows = [
    ("O=C(CC12CC3CC(CC(C3)C1)C2)Nn1nc(Cl)c2ccccc2c1=O [Example 20]", "100 to 500 nM"),
    ("O=C(CC12CC3CC(CC(C3)C1)C2)Nn1nc(-c2cccc(Cl)c2)c2ccccc2c1=O [Example 126]", "100 to 500 nM"),
    ("COc1ccc(-c2nn(NC(=O)CC3CC4CCC3C4)c(=O)c3ccccc23)cc1 (racemic) [Example 151]", "< 100 nM"),
    ("Cc1ccc(C)c(-c2nn(NC(=O)CC3CC4CCC3C4)c(=O)c3ccccc23)c1 (racemic) [Example 155]", "< 100 nM"),
    ("O=C(Cc1ccc(Cl)cc1)Nn1nc(-c2ccccc2)c2ccccc2c1=O [Example 4]", "100 to 500 nM"),
    ("O=C(CC12CC3CC(CC(C3)C1)C2)Nn1nc(-c2ccc(Cl)cc2)c2ccccc2c1=O [Example 116]", "< 100 nM"),
    ("O=C(CC12CC3CC(CC(F)(C3)C1)C2)Nn1nc(-c2ccccc2)c2ccsc2c1=O [Example 179]", "500 to 1000 nM"),
    ("CC(C)(C)c1nn(NC(=O)CC(C)(C)c2ccccc2)c(=O)c2ccccc12 [Example 64]", "< 100 nM"),
    ("COc1ccc(-c2nn(NC(=O)Cc3cc(F)cc(F)c3)c(=O)c3cc(Br)ccc23)cc1 [Example 177]", "> 10000 nM"),
    ("O=C(CC1CC2CCC1C2)Nn1nc(C(F)(F)F)c2ccccc2c1=O (racemic) [Example 58]", "100 to 500 nM"),
    ("CC(C)(CC(=O)Nn1nc(C(F)(F)F)c2ccccc2c1=O)c1ccccc1 [Example 52]", "100 to 500 nM"),
    ("COc1ccc(-c2nn(NC(=O)CC34CC5CC(CC(C5)C3)C4)c(=O)c3ccccc23)cc1 [Example 154]", "< 100 nM"),
    ("O=C(Cc1cccc(C(F)(F)F)c1)Nn1nc(-c2ccc(Cl)cc2)c2ccccc2c1=O [Example 100]", "100 to 500 nM"),
    ("O=C(CC12CC3CC(CC(C3)C1)C2)Nn1nc(-c2ccc(Br)cc2)c2ccccc2c1=O [Example 2]", "100 to 500 nM"),
    ("O=C(CC12CC3CC(CC(C3)C1)C2)Nn1nc(-c2ccccc2)c2c(F)ccc(F)c2c1=O [Example 15]", "< 100 nM"),
    ("Cc1ccc(C)c(-c2nn(NC(=O)Cc3cc(F)cc(F)c3)c(=O)c3ccccc23)c1 [Example 158]", "100 to 500 nM"),
    ("O=C(Cc1ccc(Cl)cc1)Nn1nc(-c2ccccc2)c2c(c1=O)CCC2 [Example 190]", "1000 to 10000 nM"),
]

---

Overview of reported EC50 across a group of compounds:
Test Target: KCNQ 2/3 channels (HEK293 cells stably expressing human KCNQ2 and KCNQ3 subunits) (Homo sapiens, UniProt O43525+O43526)
Protocol Details: KCNQ2/3 channel activation, thallium flux FLIPR assay with BTC-AM dye
Test Settings: HEK293 cells expressing human KCNQ2 and KCNQ3; thallium flux, FLIPR
Measure: EC50

# Compound, Assay Result
records = [
    ("O=C(C[C@H]1C[C@@H]2CC[C@H]1C2)Nn1nc(C2(c3ccccc3)CC2)c2ccccc2c1=O (racemic) [Example 172]", "< 0.1 µM"),
    ("O=C(Cc1ccc(Cl)cc1)Nn1nc(C2CCC2)c2ccccc2c1=O [Example 70]", "0.1 to 0.5 µM"),
    ("O=C(Cc1cc(F)cc(F)c1)Nn1nc(-c2ccccc2)c2ccsc2c1=O [Example 33]", "1 to 10 µM"),
    ("O=C(Cc1ccc(F)cc1)Nn1nc(-c2ccccc2)c2ccsc2c1=O [Example 32]", "1 to 10 µM"),
    ("CC(C)(CC(=O)Nn1nc(-c2ccc(Cl)cc2)c2ccccc2c1=O)c1ccccc1 [Example 89]", "0.1 to 0.5 µM"),
    ("CC(C)c1nn(NC(=O)CC23CC4CC(CC(F)(C4)C2)C3)c(=O)c2ccccc12 [Example 60]", "< 0.1 µM"),
    ("O=C(CC1(c2ccc(Cl)cc2)CCC1)Nn1nc(C(F)(F)F)c2ccccc2c1=O [Example 40]", "> 10 µM"),
    ("O=C(Cc1ccc(Cl)cc1)Nn1nc(-c2ccccc2)c2cc(F)ccc2c1=O [Example 36]", "0.1 to 0.5 µM"),
    ("O=C(CCC(F)(F)F)Nn1nc(-c2ccc(Cl)cc2)c2ccccc2c1=O [Example 123]", "0.5 to 1 µM"),
    ("O=C(Cc1cc(F)cc(F)c1)Nn1nc(-c2ccccc2)c2ccccc2c1=O [Example 18]", "0.1 to 0.5 µM"),
    ("O=C(CC1CCC1)Nn1nc(C(F)(F)F)c2ccccc2c1=O [Example 45]", "1 to 10 µM"),
    ("Cc1nn(NC(=O)Cc2cc(F)cc(F)c2)c(=O)c2ccccc12 [Example 38]", "> 10 µM"),
    ("O=C(Cc1cc(F)cc(F)c1)Nn1nc(-c2ccccc2)c2c(c1=O)CCC2 [Example 188]", "1 to 10 µM"),
    ("O=C(Cc1ccc2ccccc2c1)Nn1nc(-c2ccc(Cl)cc2)c2ccccc2c1=O [Example 121]", "1 to 10 µM"),
    ("O=C(Cc1cc(F)cc(F)c1)Nn1nc(-c2ccccc2)c2cc(F)ccc2c1=O [Example 35]", "0.1 to 0.5 µM"),
    ("Cc1ccc(-c2nn(NC(=O)Cc3ccc(Cl)cc3)c(=O)c3ccccc23)c(C)c1 [Example 161]", "0.1 to 0.5 µM"),
]
